Tested on: 926638-142-R-J1-PDC complex spheroid viability;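 further: spheroids exposed to drugs for one week before readout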
Experiment: Anticancer human tumor 926638-142-R-J1-PDC patient-derived endometrial carcinoma cell line growth inhibition [POLQ]; active means viability on the fitted dose curve at most 10% of control; inactive means the rest
Test conditions: second compound 3.16 µM; first compound 10 µM
Response enum: active, inactive

• COc1cccc2c1C(=O)c1c(O)c3c(c(O)c1C2=O)CC(O)(C(=O)CO)CC3OC1CC(N)C(O)C(C)O1 (stereo unspecified) + COC1C(OC(N)=O)C(O)C(Oc2ccc3c(O)c(NC(=O)c4ccc(O)c(CC=C(C)C)c4)c(=O)oc3c2C)OC1(C)C = active
• CCc1cc2c(N3CCc4c(cc(Cn5ccnc5)cc4-c4cn(C)nc4C(F)(F)F)C3=O)cc(C)nc2c(OC)n1 + Nc1ccc(C#CCN(C(=O)Cc2ncc(C(F)(F)F)cc2C(F)(F)F)c2ccc(F)cc2)nn1 = inactive

Hi, do you know how O=c1[nH]cc(F)c(=O)[nH]1 + COC1C(OC(N)=O)C(O)C(Oc2ccc3c(O)c(NC(=O)c4ccc(O)c(CC=C(C)C)c4)c(=O)oc3c2C)OC1(C)C came out in this test?
inactive

How did this test come out for Nc1ccn(C2OC(CO)C(O)C2(F)F)c(=O)n1 (stereo unspecified) + Nc1ccc(C#CCN(C(=O)Cc2ncc(C(F)(F)F)cc2C(F)(F)F)c2ccc(F)cc2)nn1 ?
inactive

Recorded test outcome, item CCc1cc2c(N3CCc4c(cc(Cn5ccnc5)cc4-c4cn(C)nc4C(F)(F)F)C3=O)ccnc2c(OC)n1 + Nc1ccc(C#CCN(C(=O)Cc2ncc(C(F)(F)F)cc2C(F)(F)F)c2ccc(F)cc2)nn1
inactive

Hey, what did the test say about COc1cc2cc(C(=O)CCC(=O)O)sc2cc1OC + Cc1cccc(N(C)C(=O)C2C(O)CCN2c2nc(C)cc(C(F)(F)F)c2C#N)c1 ?
inactive

Given CC(C)n1c(=O)n(C)c2cnc3cc(F)c(-c4ccc(OCCCN5CCCCC5)nc4)cc3c21 + Cc1cccc(N(C)C(=O)C2C(O)CCN2c2nc(C)cc(C(F)(F)F)c2C#N)c1 , state the outcome it received in this test.
inactive

Hey, what did the test say about O=C(Nc1ccc(O)c(NS(=O)(=O)c2ccc(F)cc2)c1)c1ccc(-c2ccccc2)cc1 + Nc1ccc(C#CCN(C(=O)Cc2ncc(C(F)(F)F)cc2C(F)(F)F)c2ccc(F)cc2)nn1 ?
inactive

Hi, do you know how CCc1cc2c(N3CCc4c(cc(Cn5ccnc5)cc4-c4cn(C)nc4C(F)(F)F)C3=O)cc(C)nc2c(OC)n1 + Cc1cccc(N(C)C(=O)C2C(O)CCN2c2nc(C)cc(C(F)(F)F)c2C#N)c1 came out in this test?
inactive

GET /call?item= CNCc1ccc(-c2[nH]c3cc(F)cc4c3c2CCNC4=O)cc1 + COC1C(OC(N)=O)C(O)C(Oc2ccc3c(O)c(NC(=O)c4ccc(O)c(CC=C(C)C)c4)c(=O)oc3c2C)OC1(C)C returns the recorded outcome of this test.
inactive

In this assay, the call recorded for O=C(Nc1ccc(O)c(NS(=O)(=O)c2ccc(F)cc2)c1)c1ccc(-c2ccccc2)cc1 + Cc1cccc(N(C)C(=O)C2C(O)CCN2c2nc(C)cc(C(F)(F)F)c2C#N)c1 was what?
inactive

The values you see were collected from PubChem BioAssay AID1963826.
